Assay target: adenosine A2B receptor (Homo sapiens (Human), UniProt P29275)
Sequence (P29275 whole entry): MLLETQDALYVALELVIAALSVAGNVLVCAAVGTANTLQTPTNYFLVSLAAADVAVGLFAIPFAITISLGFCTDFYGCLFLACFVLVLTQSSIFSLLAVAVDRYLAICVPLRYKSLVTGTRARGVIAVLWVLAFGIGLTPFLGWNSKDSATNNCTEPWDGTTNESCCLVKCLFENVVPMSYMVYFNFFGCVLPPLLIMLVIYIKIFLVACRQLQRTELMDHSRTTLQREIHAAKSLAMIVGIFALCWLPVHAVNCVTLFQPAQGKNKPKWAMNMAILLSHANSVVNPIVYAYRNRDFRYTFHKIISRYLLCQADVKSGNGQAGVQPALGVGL
Protocol description: Adenosine receptor activity assay (Table 1), A2B activity
Type: biochemical
Condition info: read-out: Ave A2B cAMP IC50
pIC50: −log10 of the molar value.
Measured parameter: pIC50

// solved cases for pIC50 follow
[
  {
    "Molecule": "CNc1cc2nc(N[C@@H](C)c3cccnc3)nc(C(=O)N3CC(O)C3)c2s1 [Example Z240]",
    "Assay target": "adenosine A2B receptor (Homo sapiens (Human), UniProt P29275)",
    "Measured parameter": "pIC50",
    "Measured result": "7.30 to 8.00"
  },
  {
    "Molecule": "Cc1cncc(CNc2nc(C(=O)N3CCCC3)c3sccc3n2)c1 [Example Z50]",
    "Assay target": "adenosine A2B receptor (Homo sapiens (Human), UniProt P29275)",
    "Measured parameter": "pIC50",
    "Measured result": "7.30 to 8.00"
  },
  {
    "Molecule": "N[C@H]1CCN(C(=O)c2nc(NCc3cncc(F)c3)nc3ccsc23)C1 [Example Z360]",
    "Assay target": "adenosine A2B receptor (Homo sapiens (Human), UniProt P29275)",
    "Measured parameter": "pIC50",
    "Measured result": "6.30 to 7.00"
  },
  {
    "Molecule": "COc1ccc(CNc2nc(C(=O)N3CCCC3)c3sccc3n2)cc1OC [Example Z38]",
    "Assay target": "adenosine A2B receptor (Homo sapiens (Human), UniProt P29275)",
    "Measured parameter": "pIC50",
    "Measured result": "< 6.30"
  }
]

Request: // lookup pIC50 for CCC(NC(=O)c1nc(NC(CC)c2cccnc2)nc2ccsc12)c1cccnc1 (stereo not shown) [Example Z23]
Response: < 6.30

Request: O=C(NCc1cncnc1)c1nc(NCc2cncnc2)nc2ccsc12 [Example Z4] ?
Response: < 6.30

Request: Would you mind doing COC[C@H]1CCN1C(=O)c1nc(N[C@@H](C)c2cncc(F)c2)nc2ccsc12 [Example Z568] as well?
Response: 7.00 to 7.30

###

Assay target: UniProt:P29274
Sequence (P29274 whole entry): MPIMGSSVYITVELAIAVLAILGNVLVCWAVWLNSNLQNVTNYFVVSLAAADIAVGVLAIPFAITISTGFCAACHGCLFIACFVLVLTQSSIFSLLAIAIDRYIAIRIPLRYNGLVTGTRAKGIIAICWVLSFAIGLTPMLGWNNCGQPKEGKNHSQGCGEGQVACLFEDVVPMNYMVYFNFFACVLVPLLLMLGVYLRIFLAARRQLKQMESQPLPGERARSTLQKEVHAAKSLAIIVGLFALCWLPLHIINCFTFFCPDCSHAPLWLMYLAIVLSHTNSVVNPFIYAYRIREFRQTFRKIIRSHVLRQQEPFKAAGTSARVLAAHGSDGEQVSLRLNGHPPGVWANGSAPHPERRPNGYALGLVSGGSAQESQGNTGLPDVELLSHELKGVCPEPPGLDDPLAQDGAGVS
Protocol description: Adenosine receptor activity assay (Table 1), A2A activity
Type: biochemical
Condition info: read-out: Ave A2A cAMP IC50
pIC50: −log10 of the molar value.
Measured parameter: pIC50

Examples with their reported pIC50 follow.
[
  {
    "Molecule": "C[C@H](Nc1nc(C(=O)N2CC(O)C2)c2sccc2n1)c1cncc(F)c1",
    "Measured parameter": "pIC50",
    "Measured result": "6.30 to 7.00"
  },
  {
    "Molecule": "CCNC1CN(C(=O)c2nc(N[C@@H](C)c3cncc(F)c3)nc3cc(C)sc23)C1",
    "Measured parameter": "pIC50",
    "Measured result": "< 6.30"
  },
  {
    "Molecule": "C[C@H](Nc1nc(C(=O)N2CCCC2)c2sc(N)cc2n1)c1cncc(F)c1",
    "Measured parameter": "pIC50",
    "Measured result": "6.30 to 7.00"
  },
  {
    "Molecule": "C[C@H](Nc1nc(C(=O)NC[C@@H](C)O)c2sccc2n1)c1ccccn1",
    "Measured parameter": "pIC50",
    "Measured result": "6.30 to 7.00"
  },
  {
    "Molecule": "Cc1cc2nc(N[C@@H](C)c3cncc(F)c3)nc(C(=O)N3CC(N(C)C(=O)CC(C)(C)C)C3)c2s1",
    "Measured parameter": "pIC50",
    "Measured result": "7.30 to 8.00"
  }
]

Request: I am curious: what pIC50 value has been reported for C[C@H](Nc1nc(C(=O)N2CCC[C@@H]2CO)c2sccc2n1)c1cccnc1 ?
Response: < 6.30

Request: What do we get for CC(=O)N[C@@H]1CCN(C(=O)c2nc(N[C@@H](C)c3ccccn3)nc3ccsc23)C1 ?
Response: < 6.30

Request: Ok, now C[C@H](Nc1nc(C(=O)N2CCN(C(=O)C(C)(C)C)C2)c2sccc2n1)c1cncc(F)c1
Response: < 6.30

Request: Now consider C[C@H](Nc1nc(C(=O)N2CC[C@@H](S(C)(=O)=O)C2)c2sccc2n1)c1cccnc1 and answer again.
Response: < 6.30

Request: Also COC1CN(C(=O)c2nc(N[C@@H](C)c3ccccn3)nc3cc(C)sc23)C1 ?
Response: 7.30 to 8.00

###

Assay target: adenosine A2B receptor (Homo sapiens (Human))
Protocol description: Adenosine receptor activity assay (Table 1), A2B activity
Format: biochemical
Condition info: read-out: Ave A2B cAMP IC50
pIC50: −log10 of the molar value.
Measured parameter: pIC50

[
  {
    "Compound": "CO[C@H]1CCN(C(=O)c2nc(N[C@@H](C)c3ccccn3)nc3cc(C)sc23)C1",
    "Assay target": "adenosine A2B receptor (Homo sapiens (Human))",
    "pIC50": "7.30 to 8.00"
  },
  {
    "Compound": "CNC(=O)NCC1CN(C(=O)c2nc(N[C@@H](C)c3cncc(F)c3)nc3ccsc23)C1",
    "Assay target": "adenosine A2B receptor (Homo sapiens (Human))",
    "pIC50": "> 8.00"
  },
  {
    "Compound": "Cc1cc2nc(N[C@@H](C)c3cncc(F)c3)nc(C(=O)N3CC(NC(=O)C4CCCO4)C3)c2s1 (some centres unmarked)",
    "Assay target": "adenosine A2B receptor (Homo sapiens (Human))",
    "pIC50": "7.30 to 8.00"
  }
]

Request: Param readout = pIC50; param system = adenosine A2B receptor (Homo sapiens (Human)); param query = C[C@H](Nc1nc(C(=O)N2CC[C@@H](CO)C2)c2sccc2n1)c1cncc(F)c1 ; response: value
Response: > 8.00

###

Assay target: adenosine A2B receptor (Homo sapiens (Human), UniProt P29275)
Protocol description: Adenosine receptor activity assay (Table 1), A2B activity
Type: biochemical
Condition info: read-out: Ave A2B cAMP IC50
pIC50: −log10 of the molar value.
Measured parameter: pIC50

Here are 6 compounds together with their reported answers.
[
  {
    "Molecule": "C[C@H](Nc1nc(C(=O)NCCN2CCCC2)c2sccc2n1)c1ccccn1",
    "Measured result": "< 6.30"
  },
  {
    "Molecule": "O=C(c1nc(NCc2cncc(C(F)(F)F)c2)nc2ccsc12)N1CCC1",
    "Measured result": "7.00 to 7.30"
  },
  {
    "Molecule": "C[C@H](Nc1nc(C(=O)N2CC[C@@H](S(C)(=O)=O)C2)c2sccc2n1)c1ccccn1",
    "Measured result": "6.30 to 7.00"
  },
  {
    "Molecule": "C[C@H](Nc1nc(C(=O)NC2CCCC2)c2sccc2n1)c1ccccn1",
    "Measured result": "7.30 to 8.00"
  },
  {
    "Molecule": "C[C@H](Nc1nc(C(=O)N2CC[C@H](F)C2)c2sccc2n1)c1cccnc1",
    "Measured result": "7.30 to 8.00"
  },
  {
    "Molecule": "Cc1csc2c(C(=O)NC3CCC3)nc(N[C@@H](C)c3ccccn3)nc12",
    "Measured result": "> 8.00"
  }
]

Turning to the following compound.
Request: Using the record for Cc1cc2nc(N[C@@H](C)c3cccnc3)nc(C(=O)NCc3ccccn3)c2s1 , report its pIC50.
Response: 7.00 to 7.30

###

Protocol description: Hepatocyte (Hep) intrinsic clearance, rat
Format: in vitro ADME
Condition info: hepatocytes
Measured parameter: hepatocyte CLint (µL/min/1e6 cells)

[
  {
    "Molecule": "O=C(c1nc(NCc2cncc(F)c2)nc2ccsc12)N1CC[C@H](F)C1",
    "hepatocyte CLint (µL/min/1e6 cells)": 65.3
  }
]

A = O=C(c1nc(NCc2cncc(F)c2)nc2ccsc12)N1CC(F)(F)C1
B = COC1CN(C(=O)c2nc(N[C@@H](C)c3cccnc3)nc3ccsc23)C1
Request: Quick one: lower hepatocyte CLint, A or B ? Indicate which entry you chose by stating its label.
Response: B
(B: 24.2 µL/min/1e6 cells, A: 61.4 µL/min/1e6 cells)

###

Each item that follows carries a reported IC50.
Assay target: adenosine A2B receptor (Homo sapiens (Human), UniProt P29275)
Protocol description: Adenosine receptor activity assay (Table 1), A2B activity
Type: biochemical
Condition info: read-out: Ave A2B cAMP IC50

// below: answered compounds
[
  {
    "Compound": "CC(C)C(=O)NCC1CN(C(=O)c2nc(N[C@@H](C)c3cncc(F)c3)nc3ccsc23)C1",
    "IC50": "10 to 50 nM"
  },
  {
    "Compound": "O=C(c1nc(NCc2cccc(F)c2)nc2ccsc12)N1CCN(CCCc2ccccc2)CC1",
    "IC50": "> 500 nM"
  },
  {
    "Compound": "Cc1cc2nc(N[C@@H](C)c3cncc(F)c3)nc(C(=O)N3CC(CN(C)C)C3)c2s1",
    "IC50": "10 to 50 nM"
  },
  {
    "Compound": "CC(=O)N[C@@H]1CCN(C(=O)c2nc(N[C@@H](C)c3cncc(F)c3)nc3ccsc23)C1",
    "IC50": "50 to 100 nM"
  },
  {
    "Compound": "C[C@H](Nc1nc(C(=O)N2CC[C@@H](O)C2)c2sc(N)cc2n1)c1cncc(F)c1",
    "IC50": "< 10 nM"
  },
  {
    "Compound": "COC1CN(C(=O)c2nc(N[C@@H](C)c3cncc(F)c3)nc3cc(C)sc23)C1",
    "IC50": "< 10 nM"
  },
  {
    "Compound": "Cc1cc2nc(N[C@@H](C)c3cncc(F)c3)nc(C(=O)N3CCC3)c2s1",
    "IC50": "< 10 nM"
  },
  {
    "Compound": "COc1ncccc1CNC(=O)c1nc(N[C@@H](C)c2ccccn2)nc2ccsc12",
    "IC50": "> 500 nM"
  },
  {
    "Compound": "C[C@H](Nc1nc(C(=O)NCCc2ccc(S(N)(=O)=O)cc2)c2sccc2n1)c1cncc(F)c1",
    "IC50": "10 to 50 nM"
  },
  {
    "Compound": "CNc1cc2nc(N[C@@H](C)c3ccccn3)nc(C(=O)N3CC[C@@H](C)C3)c2s1",
    "IC50": "10 to 50 nM"
  }
]

Request: Identify the measured IC50 of COc1cncc(CNC(=O)c2nc(N[C@@H](C)c3ccccn3)nc3ccsc23)c1 for adenosine A2B receptor (Homo sapiens (Human), UniProt P29275).
Response: 50 to 100 nM

Request: Also O=C(c1nc(NCc2cncc(F)c2)nc2ccsc12)N1CC[C@H](F)C1 , if possible.
Response: 10 to 50 nM

Request: Quick one: CO[C@H]1CCN(C(=O)c2nc(N[C@@H](C)c3cncc(F)c3)nc3cc(C)sc23)C1
Response: < 10 nM

Request: For Cc1cc2nc(N[C@@H](C)c3cncc(F)c3)nc(C(=O)NCCC3CN(C(=O)OC(C)(C)C)C3)c2s1 then?
Response: 10 to 50 nM

Request: Please answer likewise for CC(Nc1nc(C(=O)N2CC[C@@H](F)C2)c2sccc2n1)c1cccnc1 (stereo partly drawn)
Response: 10 to 50 nM
